Source: paper PMC8809517

# test-system: T1, GFP-9S library array, motif 4 ND N98M (synthetic construct, N98M)
# T1 chain: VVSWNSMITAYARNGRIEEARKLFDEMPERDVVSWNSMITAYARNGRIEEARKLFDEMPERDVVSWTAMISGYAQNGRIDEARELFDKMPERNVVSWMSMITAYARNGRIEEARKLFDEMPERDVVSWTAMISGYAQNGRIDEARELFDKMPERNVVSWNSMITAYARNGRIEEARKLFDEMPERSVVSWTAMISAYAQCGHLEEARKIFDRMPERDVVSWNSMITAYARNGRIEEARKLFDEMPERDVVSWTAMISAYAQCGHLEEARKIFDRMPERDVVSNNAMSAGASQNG
# protocol-description: high-throughput RNA pulldown from lysate on Ni-NTA beads; HRP: 50 mM Tris pH 8, 150 mM NaCl, 1 mM beta-mercaptoethanol, 50 ug/ml BSA, 3 ug/ml yeast RNA, 0.5% heparin; ITC and FP: Tris pH 8, 200 mM KCl, 5% glycerol; MST: 50 mM Tris pH 8, 200 mM NaCl, 1 mM DTT, BSA, heparin, 0.05% Tween 20
# condition-parameters: tags: N-terminal His-eGFP; label: 5' Cy5
result-type: Kd (nM)

In [3]: df
Out[3]:
                             binder  value_measured
0    AUUACACGUGA (ssRNA) [Cy5-rpoA]             143
1  AUUAGACGUGA (ssRNA) [Cy5-rpoA-G]            43.1
